- Type: in vivo, human
- recorded.conditions: after a 75-mg single dose; from free plasma fraction and liver/plasma ratio
parameter.measured: maximal estimated liver concentrations (µmol/L)
Give bare numbers, in µmol/L.

Examples with answers:
molecule	units.label	maximal estimated liver concentrations
CC(NC(C)(C)C)C(=O)c1cccc(Cl)c1 (stereo not shown)	µmol/L	0.73
CC(NC(C)(C)CO)C(=O)c1cccc(Cl)c1 (stereo not shown) [OH-bup, 4′-hydroxybupropion]	µmol/L	1.13
CC(NC(C)(C)C)C(O)c1cccc(Cl)c1 (stereo not shown) [erythrohydrobupropion]	µmol/L	0.16

Exam item: Which measured maximal estimated liver concentrations value corresponds to C[C@H](NC(C)(C)C)[C@@H](O)c1cccc(Cl)c1 [threohydrobupropion] ?
Marked response: 1.31
